Listed below: PBM E-score values for each entry.
# Target desc: Sko1 (UniProt Q02100)
# Sequence: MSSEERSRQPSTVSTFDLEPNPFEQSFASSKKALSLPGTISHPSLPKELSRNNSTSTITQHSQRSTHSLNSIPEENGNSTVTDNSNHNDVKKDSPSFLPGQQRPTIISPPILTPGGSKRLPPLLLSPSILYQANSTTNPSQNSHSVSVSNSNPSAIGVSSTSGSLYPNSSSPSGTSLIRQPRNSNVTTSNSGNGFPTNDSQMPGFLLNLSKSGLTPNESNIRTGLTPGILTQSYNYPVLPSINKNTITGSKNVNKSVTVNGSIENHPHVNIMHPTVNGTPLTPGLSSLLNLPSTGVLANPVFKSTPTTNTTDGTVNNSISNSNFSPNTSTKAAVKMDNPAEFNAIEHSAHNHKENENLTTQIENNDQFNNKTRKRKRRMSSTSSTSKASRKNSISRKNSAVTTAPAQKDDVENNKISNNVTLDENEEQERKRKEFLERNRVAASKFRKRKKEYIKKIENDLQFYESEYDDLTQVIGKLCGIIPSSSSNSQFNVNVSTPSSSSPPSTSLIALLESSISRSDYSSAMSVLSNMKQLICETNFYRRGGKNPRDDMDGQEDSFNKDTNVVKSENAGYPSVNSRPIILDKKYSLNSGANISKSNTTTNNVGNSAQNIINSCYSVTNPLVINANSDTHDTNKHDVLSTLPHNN
# Measurement notes: PBM E-score (8-mer binding enrichment) (E-score (-0.5 to 0.5)); higher = stronger / more preferred TF binding
# Condition summary: protein concentration: 200 nM; construct: GST-full length
The full ranking holds about 33,000 sequences; the median of “E-score (-0.5 to 0.5)” is about -0.032, and the highest 2% start at about 0.36. The sample as a whole holds a higher share of the highest values than the screen did.
Measured metric: PBM E-score

AAACACGT    0.413
AACTGACA    0.183
CCACACTC    0.00961
AAGAAGTG    -0.0945
ATCTGAGA    -0.0991
AAAGTAAC    0.0224
ACTGCAAC    -0.0632
AGGAACAT    0.176
TACACCGA    -0.177
AGCGTATC    -0.0128
GTACGCAA    0.399
AGTATGAT    0.286
CTCGCAAG    0.0771
ACACACGG    -0.0648
GTGCGTTA    0.259
CCGACTGA    -0.162
ACGTTTCC    0.294
AATCTAAC    0.124
AAGAAGGT    -0.0729
GCATGCCA    -0.187
TAAAGAGA    0.0871
AATAAGCT    0.0887
ATTGCTTC    -0.109
ACGTTAGC    0.352
GTACGCGA    0.277
AATCCAAT    0.0698
AGCGTATG    -0.0197
AACTAATT    0.182
AAAACAGT    0.0855
ATGCGTCC    -0.124
AATGGCGT    0.387
ACGTTGTA    0.394
ATTACGGG    0.206
CCGTTATC    -0.00855
AACTGACT    -0.0679
CCACACAG    -0.208
CGTAAGCC    0.203
AAAGCGGT    -0.0789
ATTACCTG    0.067
CCGTTATA    0.0635
AAACACGA    0.163
CCCGGGTC    -0.204
TACACTAA    -0.0348
CGCTGACG    0.389
CCTACTAA    -0.18
CCCGACGC    -0.148
ATCTAGAG    -0.0987
ACAGGAGT    -0.0316
CACGTATA    0.431
ATTAGGTC    0.207
ACGTTGTG    0.311
CCTCATCC    -0.292
AGCTGACG    0.347
GAAGTATC    0.0123
AGTAAGGC    -0.0198
CTGCGTCA    0.435
ATGCGTCG    0.0928
ACATCTAG    -0.0627
ACGTTTGG    0.296
AGTCATCA    -0.103
CACTGACA    0.0149
ACGTTATA    0.426
AAACACGC    0.316
ACCGTATG    0.105
AACTGACG    0.363
CATCATCA    0.361
CTCGTATA    0.0394
ACGTTACC    0.297
AACGTATG    0.431
TAAGCAGA    -0.00339
CAGGTATG    -0.00478
CCCACTGC    -0.115
ATTACGGC    0.303
ACGTTTTC    0.396
AGTCATCC    -0.0488
CACTGACG    0.424
ACGTTATC    0.413
AACTCTAT    -0.186
AGTATGAG    0.129
CGGCGTCA    0.241
ATATTTCG    0.235
CAGACCTA    0.125
ATACGCAA    0.447
AATGGCGC    -0.0228
CGCTGACC    -0.15
